A collection of molecules and their measured % Inhibition
# System: Plasmodium falciparum
# test.summary: Confirmatory screen in NF54 nanoGlo assay, in single point, at 2uM, 72h
# Format: functional, Erythrocyte
# experimental.conditions: timepoint 72 hour
Hit rate of the full screen: of about 4,800 compounds, about 420 (8.8%) showed an effect of 50% or more. This is one part of a sample in which strong results are shown more often than they occur.
parameter.measured: % Inhibition (%)

In [3]: df
Out[3]:
                             chemical_string  scale_unit  recorded_result
 0  CCOC(=O)c1ccc(N2CCN(Cc3ccccc3)CC2)c(NC(=O)COc2ccc(Cl)cc2C)c1           %               -4
 1        O=C1NC(=O)[C@]2(CCOc3ccc(F)cc32)N1           %               -3
 2  Clc1ccc(NC2(c3noc([C@@H]4CCCCO4)n3)CCC2)cc1           %                5
 3                  O=S1(=O)NCCCCN1Cc1ccccc1           %               -6
 4   O=C(Oc1cccc2cccnc12)c1ccc(-c2ccccc2)cc1           %                2
 5  Fc1ccc(-c2csc(N3CCC[C@H](c4cn[nH]c4)C3)n2)cc1           %               -1
 6          Nc1ncc(C(=O)N2CCC3(CCCCCC3)C2)s1           %               98
 7          O=C(Nc1cccc2cccnc12)c1cncc(Br)c1           %              -12
 8              O=C(Nc1cccc2cccnc12)c1ccccn1           %               80
 9            CC(C)(C)C(=O)NCCNC(=O)c1ccccn1           %                8
10  COc1ccc(-c2nccn3cc(C(=O)NCC(C)C)nc23)cc1           %               -2
11           Cc1ccc(NCc2ncccn2)cc1OCC1CCCCC1           %                1

* * *

# Tested on: Plasmodium falciparum
# test.summary: Confirmatory screen in NF54 nanoGlo assay, in single point, at 2uM, 72h
# Format: functional, Erythrocyte
# experimental.conditions: timepoint 72 hour
Among all 4,800 compounds or so, about 420 (8.8%) showed an effect of 50% or more. Only a selection was taken, and strong results are over-represented in it overall.
parameter.measured: % Inhibition (%)

>>> print(df.to_string())
                                   compound  parameter_measured  recorded_result
0  CN1CCc2ncnc(Nc3ccc4nc(N5CCCC5)sc4c3)c2C1        % Inhibition                2
1  CCO[C@H]1C[C@H](NC(=O)Nc2ccc(F)c(C3CC3)c2)C1        % Inhibition                2
2  COCCNC(=O)c1ccc(-n2nc(-c3nnc(C)o3)c(C)c2-c2ccc(OC)cc2)cc1        % Inhibition               46
3  Cc1nnc2ccc(S(=O)(=O)N(Cc3ccccc3F)c3cc(F)cc(F)c3)cn12        % Inhibition               -5
4          Cc1occc1C(=O)NC1(c2ccccc2)CCOCC1        % Inhibition               -5
5  Nc1cc2c(cc1C1=Nc3ccccc3C(c3ccccc3)(c3ccccc3)N1)OCO2        % Inhibition               10
6  CCCC[C@H](Oc1ccc(C(C)(C)CC)cc1C(C)(C)CC)C(=O)Nc1ccc(NC(=O)C(F)(F)C(F)(F)C(F)(F)F)c(O)c1        % Inhibition               30
7  COc1ccc(N(C(=O)c2ccccc2)C2CC(C)N(C(=O)c3ccccc3)c3cc(OC)c(OC)cc32)cc1OC (stereo not given)        % Inhibition               -1
8  Cc1ccc(CC(=O)N2CCC(NC(=O)OC(C)(C)C)CC2C)o1 (stereo not given)        % Inhibition               -7
9   CC(C)C(=O)N1CC[C@H](CC(=O)NCc2ccccc2)C1        % Inhibition               -4

* * *

# Tested on: Plasmodium falciparum
# test.summary: Confirmatory screen in NF54 nanoGlo assay, in single point, at 2uM, 72h
# Type: functional, Erythrocyte
# experimental.conditions: timepoint 72 hour
The whole screen tested about 4,800 compounds, of which about 420 (8.8%) showed an effect of 50% or more. This excerpt belongs to a sample that is enriched for strong results.
A collection of molecules and their measured % Inhibition
parameter.measured: % Inhibition (%)

In [3]: df
Out[3]:
                            chemical_string  recorded_result
0     Cn1cc(C(=O)N2N=CC[C@]2(O)C(F)(F)F)cn1                1
1   CC1(C)C[C@@H](NC(=O)COc2ccc(CO)cc2)CCO1               -1
2  O=C(C[C@@H]1C=CCC1)Nc1nc(-c2ccc(Cl)cc2)cs1                2
3  Cc1c([C@@H](NCc2ncccc2O)C(C)C)oc2ccccc12               99
4                COc1ccc(Cl)cc1CNC[C@H](C)O               -6
5         O=C(NCc1ccccc1OC1CCC1)N(CCO)C1CC1               -2

* * *

# Test system: Plasmodium falciparum
# test.summary: Confirmatory screen in NF54 nanoGlo assay, in single point, at 2uM, 72h
# Type: functional, Erythrocyte
# experimental.conditions: timepoint 72 hour
Out of some 4,800 compounds screened, about 420 (8.8%) showed an effect of 50% or more. The entries come from a sample that favours strong results as a whole.
parameter.measured: % Inhibition (%)

>>> print(df.to_string())
                                    compound  recorded_result
 0  O=C1c2ccccc2[C@@H](Nc2ccc3c(c2)OCCO3)N1c1ccccn1              -17
 1  Cc1oc(=S)n2c1C[C@@H](c1ccccc1)N(Cc1ccccc1)C2              -15
 2  NC(=O)C1CCN(CCC(=O)N2CCc3cc4ccc3[C@@H]2c2cccc(c2)OCCCNC(=O)c2cc(ccc2O)O4)CC1               96
 3    O=C(Nc1[nH]c(=O)ncc1F)c1cc(F)c(F)cc1Br               95
 4  O=C(O)[C@H]1CC(=O)N(c2ccc3nc(-c4cccc(F)c4)oc3c2)C1               -6
 5       CC1(C)C(=O)NCCN1C(=O)c1cccc2ccccc12                5
 6                  CN(C)CCCNCc1ccc(Cl)cc1Cl               -3
 7  CCOc1ccc(-[n+]2cc(-c3ccccc3)n3c2CCC3)cc1               80
 8  c1coc(CNc2nc(Nc3cccc4ccccc34)nc3ccccc23)c1               20
 9  Cc1c(CCNC(=O)NCC2CC23CCc2ccccc23)cnn1C (stereo not given)               -4
10  Cc1nc(-c2ccc(C(F)(F)F)cc2)nc(N2CCN(C(=O)c3cc(C(F)(F)F)cc(C(F)(F)F)c3)CC2)c1C(C)C               -2
11  c1ccc(-c2c[nH]c([C@H]3CCCN(c4ncnc5[nH]ncc45)C3)n2)cc1               -4
12           O=C(c1cccs1)N1CCN(C2CCCCCC2)CC1                1
13             CNc1nc(NCCc2ccccc2)nc2ccccc12               80
14  C[C@H](Nc1nc(N2CCCCC2)nc2ccccc12)c1ccccc1               -1
15            Cn1ccc(NC(=O)c2cccc3ccccc23)n1               -8
16     CC(C)CC[C@@H](CCNCCN(C)C)c1ccc(Cl)cc1               96
17                CCOc1ncccc1CNC(=O)CNC(C)=O                3
18      CC[C@H]1C(=O)NCCN1C(=O)c1cc(C)n[nH]1                7
19  O=C(N[C@H](c1ccccc1)C1CC1)N1CCN(S(=O)(=O)c2cccc(F)c2)CC1                4
20  COc1ccc(C(=O)N2CC[C@H](CC(=O)N3CCOCC3)C2)cc1               -9
21            COc1nc(NC2CCS(=O)(=O)CC2)ncc1F               75
22  COc1ccc(C(=O)Nc2ccc3c(c2)C(=O)Nc2cccnc2O3)cc1OC               46
23             c1ccc2oc(-c3ccnc4nncn34)cc2c1               -7
24  C[C@@H](C(=O)Nc1cccc2ccccc12)c1ccc(-c2ccccc2)c(F)c1              -11
25  CC1(C)OCc2cc(CNc3ccc4oc(=O)[nH]c4c3)ccc2O1               93
26  CN(C)c1nc(CN2CCC[C@H](c3n[nH]c(-c4ccccc4)n3)C2)ns1               -1
27    Cn1c(-c2ccccc2)cn2cc(-c3ccc(F)cc3)nc12                1
28  O=S(=O)(NC1CCCCC1)c1ccc(Cl)c(S(=O)(=O)NC2CCCCC2)c1                0
29  CCOc1nc(C)nc2cc(-c3ccccc3)n(Cc3ccccc3)c12                0
30          FCCn1ncnc1CN1CCCCC[C@H]1C1CCCCC1                4
31  COc1cc(=O)c(C(=O)N2CCC(C(N)=O)CC2)nn1-c1ccc(F)c(F)c1                3
32  CCCn1c(C)ccc(-c2noc(CCC(=O)NC3CCCC3)n2)c1=O               -6
33  CC[C@H]1CN2C=NC(N3CCN(C(=O)Nc4cc(F)cc(F)c4)CC3)=CC2=N1               35
34       CNc1nc(Nc2ccc3c(c2)OCCO3)nc2ccccc12               95
35         C[n+]1ccccc1/C=C/c1c[nH]c2ccccc12               90
36  CC1CCC(c2noc([C@H]3CCO[C@@H]3c3cncc(Br)c3)n2)CC1 (stereo not given in full)               52
37  NS(=O)(=O)c1ccc(CCNc2nc(-c3ccccc3)nc3ccccc23)cc1               -2
38  CN1CCC(NCC[C@@H](Cc2ccccc2Cl)c2ccc(Cl)cc2)CC1               82
39   Cc1cc(-c2csc(CN3C(=O)CNC3=O)n2)cc(C)c1F               -4
40  O=C(c1cncc(Br)c1)N1CC[C@H](c2nc(C3CCOCC3)no2)C1               -2
41  CC1CCCC(C)N1C(=O)CN(C)c1cccc2cccnc12 (stereo not given)               -7
42  Cc1ccc(-c2nc3ncccn3c2Nc2ccc3c(c2)OCCO3)o1               -8
43  CCCc1ccc(Cl)c(S(=O)(=O)Nc2nnc(C3CC3)o2)c1                2
44  COCc1cc(=O)n(CC(=O)NCc2ccccc2Cl)c(N2CCCC2)n1              -11

Where do the numbers come from? From ChEMBL document CHEMBL4888484.
